# Tested On: Farnesoid X receptor (FXR) (Homo sapiens)
# Construct: FXR-LBD-Glutathione S-transferase fusion protein
# Sequence (Q96RI1 262-486 limits assumed): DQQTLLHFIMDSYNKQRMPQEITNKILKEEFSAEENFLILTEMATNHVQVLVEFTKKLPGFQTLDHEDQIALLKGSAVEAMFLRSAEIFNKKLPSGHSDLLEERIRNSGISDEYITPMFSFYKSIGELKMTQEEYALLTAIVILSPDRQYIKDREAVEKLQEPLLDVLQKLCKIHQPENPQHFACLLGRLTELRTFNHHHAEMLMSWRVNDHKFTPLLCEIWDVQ
# Assay: LanthaScreen TR-FRET FXR coactivator recruitment assay (partial agonist, […] of GW4064); also luciferase reporter assay
Metric: pEC50
Here pEC50 is given on a logarithmic scale as minus log10 of the concentration in mol/L.

input: Record `CC(C)(C)c1ccc(-n2c(C3CC3)nc3c(NC(=O)c4ccc(C(=O)O)cc4)cccc32)cc1` : what is its pEC50 with Farnesoid X receptor (FXR) (Homo sapiens)?
output: 6.20

Values were extracted from paper PMC11722014.
